Hello, the source for this data is paper PMC6156755, in case you need it.

System: Caco-2 cell monolayer
Test: Caco-2 permeability assay with pH 7.4 buffer or human plasma in both chambers
Conditions: human plasma in both chambers
// values below are reported Mass balance B-A
The figure you give is taken to be in %; do not add the unit.

>  <molecule>
CCN(CC)Cc1cc(Nc2ccnc3cc(Cl)ccc23)ccc1O

>  <assayed_target>
Caco-2 cell monolayer

>  <Mass balance B-A (%)>
88

$$$$
>  <molecule>
OC[C@@H](O)[C@@H](O)[C@H](O)[C@H](O)CO [^14C-Mannitol, D-[1-^14C]-mannitol]

>  <assayed_target>
Caco-2 cell monolayer

>  <Mass balance B-A (%)>
97

$$$$

Then this molecule:
Entry `O=C1C(O)=C([C@H]2CC[C@H](c3ccc(Cl)cc3)CC2)C(=O)c2ccccc21` has what Mass balance B-A? 97

###

Experiment: in vitro
Settings: human, Caco-2, pH 7.4, Papp B-A
// values below are reported Papp B→A
The figure you give is taken to be in nm/s; do not add the unit.

>  <molecule>
CCN(CC)Cc1cc(Nc2ccnc3cc(Cl)ccc23)ccc1O [Amodiaquine, amodiaquine]

>  <Papp B→A, nm/s>
630

$$$$
>  <molecule>
OC(c1cc(C(F)(F)F)nc2c(C(F)(F)F)cccc12)C1CCCCN1 (stereo not shown) [Mefloquine, mefloquine]

>  <Papp B→A, nm/s>
1500

$$$$
>  <molecule>
CC(C)NCC(O)COc1cccc2ccccc12 (stereo not shown) [Propranolol, propranolol]

>  <Papp B→A, nm/s>
1100

$$$$

Then this molecule:
Entry C[C@H]1O[C@@H](O[C@H]2[C@@H](O)C[C@H](O[C@H]3[C@@H](O)C[C@H](O[C@H]4CC[C@@]5(C)[C@H](CC[C@@H]6[C@@H]5C[C@@H](O)[C@]5(C)[C@@H](C7=CC(=O)OC7)CC[C@]65O)C4)O[C@@H]3C)O[C@@H]2C)C[C@H](O)[C@@H]1O [^3H-Digoxin, [^3H(G)]-digoxin] has what Papp B→A? 260

###

Tested on: Caco-2 cell monolayer
Experiment: Caco-2 permeability assay with pH 7.4 buffer or human plasma in both chambers
Conditions: buffer pH 7.4 in both chambers
readout: Mass balance B-A (%)
The figure you give is taken to be in %; do not add the unit.

The cases that follow already have their Mass balance B-A on record.
>  <compound>
OC[C@@H](O)[C@@H](O)[C@H](O)[C@H](O)CO [^14C-Mannitol, D-[1-^14C]-mannitol]

>  <Mass balance B-A / %>
99

$$$$
>  <compound>
CC(C)NCC(O)COc1cccc2ccccc12 (stereo not drawn) [Propranolol, propranolol]

>  <Mass balance B-A / %>
97

$$$$
>  <compound>
OC(c1cc(C(F)(F)F)nc2c(C(F)(F)F)cccc12)C1CCCCN1 (stereo not drawn) [Mefloquine, mefloquine]

>  <Mass balance B-A / %>
86

$$$$

Request - read-out Mass balance B-A | tested on Caco-2 cell monolayer | compound C[C@H]1O[C@@H](O[C@H]2[C@@H](O)C[C@H](O[C@H]3[C@@H](O)C[C@H](O[C@H]4CC[C@@]5(C)[C@H](CC[C@@H]6[C@@H]5C[C@@H](O)[C@]5(C)[C@@H](C7=CC(=O)OC7)CC[C@]65O)C4)O[C@@H]3C)O[C@@H]2C)C[C@H](O)[C@@H]1O [^3H-Digoxin, [^3H(G)]-digoxin] 100
